# ASSAY SYSTEM: SERT (Homo sapiens (Human), UniProt P31645)
# Sequence (P31645 whole entry, species assumed): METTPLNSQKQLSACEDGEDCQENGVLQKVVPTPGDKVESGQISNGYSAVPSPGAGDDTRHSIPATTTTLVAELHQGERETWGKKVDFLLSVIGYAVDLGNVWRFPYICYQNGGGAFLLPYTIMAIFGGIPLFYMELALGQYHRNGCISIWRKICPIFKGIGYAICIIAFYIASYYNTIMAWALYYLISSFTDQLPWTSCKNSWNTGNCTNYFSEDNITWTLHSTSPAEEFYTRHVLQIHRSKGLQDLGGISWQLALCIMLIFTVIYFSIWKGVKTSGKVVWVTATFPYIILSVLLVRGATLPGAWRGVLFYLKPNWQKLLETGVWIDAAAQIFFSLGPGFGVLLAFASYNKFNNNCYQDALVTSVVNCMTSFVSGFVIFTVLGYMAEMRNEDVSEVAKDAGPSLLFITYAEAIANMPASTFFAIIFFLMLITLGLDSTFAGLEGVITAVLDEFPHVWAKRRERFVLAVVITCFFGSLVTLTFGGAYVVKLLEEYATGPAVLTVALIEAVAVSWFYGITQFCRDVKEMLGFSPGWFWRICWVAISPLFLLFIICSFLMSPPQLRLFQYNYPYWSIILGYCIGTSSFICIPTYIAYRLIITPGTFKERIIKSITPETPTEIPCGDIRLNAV
# ASSAY INFO: SERT inhibition assay (Neurotransmitter Transporter Fluorescence assay)
# Type: cell-based
# CONDITION PARAMETERS: class symbols; legend in nM/micromolar
PROPERTY: IC50

Here's what some known entries look like.
>>> observed_measurement("COc1ccc([C@@]23CC[C@H](N4CCOCC4)C[C@@H]2N(C)CC3)cc1OC")
"100 to 500 nM"
>>> observed_measurement("COc1ccc([C@@]23CCN(C)[C@H]2CC(=O)[C@@H]2O[C@@H]23)cc1OC (racemic)")
"50 to 100 nM"
>>> observed_measurement("COc1ccc([C@]23CC[C@H](n4ccc(C(F)(F)F)n4)C[C@H]2N(C)CC3)cc1OC")
"> 1000 nM"
>>> observed_measurement("COc1ccc([C@]23CC[C@@H](n4ccc(C(F)(F)F)n4)C[C@H]2N(C)CC3)cc1OC")
"100 to 500 nM"
>>> observed_measurement("COc1ccc([C@]23CCN(C)[C@H]2[C@H]2CC[C@@H]3CC2=O)cc1OC")
"50 to 100 nM"

Next item in the queue.
Tell me IC50 reported for "COc1ccc([C@@]23CC[C@H](N4CCCCC4)C[C@@H]2N(C)CC3)cc1OC" > 1000 nM

* * *

# ASSAY SYSTEM: PDE4B2 (Homo sapiens (Human))
# Sequence (Q07343 other isoform, or with tags, fused parts or gaps): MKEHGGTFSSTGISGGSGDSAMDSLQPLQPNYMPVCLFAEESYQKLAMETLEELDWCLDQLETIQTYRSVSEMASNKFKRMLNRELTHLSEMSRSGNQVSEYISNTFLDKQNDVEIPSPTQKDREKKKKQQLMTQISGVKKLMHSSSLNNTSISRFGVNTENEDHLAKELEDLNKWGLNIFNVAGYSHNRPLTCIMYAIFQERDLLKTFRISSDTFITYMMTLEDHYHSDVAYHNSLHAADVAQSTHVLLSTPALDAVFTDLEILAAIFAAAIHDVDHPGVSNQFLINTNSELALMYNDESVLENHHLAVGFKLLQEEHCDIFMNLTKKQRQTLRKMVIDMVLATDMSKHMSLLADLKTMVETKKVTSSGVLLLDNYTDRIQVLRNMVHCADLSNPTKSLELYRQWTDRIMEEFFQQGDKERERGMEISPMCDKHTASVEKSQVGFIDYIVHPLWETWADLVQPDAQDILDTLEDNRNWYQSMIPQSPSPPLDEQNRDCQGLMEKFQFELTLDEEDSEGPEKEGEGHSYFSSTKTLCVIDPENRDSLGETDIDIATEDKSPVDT
# ASSAY INFO: PDE4 percent inhibition assay
# Type: biochemical
# CONDITION PARAMETERS: read-out: PDE4 Isoform % Inhibition @ 10 μM PDE4B2
PROPERTY: inhibition at 10 µM

>>> observed_measurement("COc1ccc([C@@]23CC[C@@H](N4CCOCC4)C[C@@H]2N(C)CC3)cc1OC [Compound 109]")
"< 30%"

Determine from records and report inhibition at 10 µM for COc1ccc([C@@]23CC[C@H](N4CCCC4=O)C[C@@H]2N(C)CC3)cc1OC [Compound 111] < 30%

Item COc1ccc([C@]23CCN(C)[C@H]2CC(=O)C=C3c2ccccc2)cc1OC (racemic) [Compound 201] : provide inhibition at 10 µM ≥ 70%

Please indicate inhibition at 10 µM recorded for COc1ccc([C@@]23CC[C@H](N4CCCC4)C[C@@H]2N(C)CC3)cc1OC [Compound 106] < 30%

Respond only with inhibition at 10 µM recorded for COc1ccc([C@@]23CC[C@H](N4CCC4)C[C@@H]2N(C)CC3)cc1OC [Compound 104] < 30%

Recall and state the measured inhibition at 10 µM for COc1ccc([C@@]23CCN(C)[C@H]2CC(=O)[C@@H]2O[C@@H]23)cc1OC (racemic) [Compound 208] . ≥ 70%

Give recorded inhibition at 10 µM. COc1ccc([C@@]23CC[C@H](N4CCCCC4)C[C@@H]2N(C)CC3)cc1OC [Compound 107] < 30%

Tell me its inhibition at 10 µM given COc1ccc([C@]23CCN(C)[C@H]2CC2(CCCO2)CC3)cc1OC (stereo partly drawn) [Compound 117] as the entry. 30 to 50%

Let me know recorded inhibition at 10 µM for COc1ccc([C@@]23CC[C@@H](n4cccn4)C[C@@H]2N(C)CC3)cc1OC [Compound 103] , thanks. < 30%

* * *

Reported inhibition at 10 µM by item:
# ASSAY SYSTEM: UniProt Q08499
# ASSAY INFO: PDE4 percent inhibition assay
# Assay type: biochemical
# CONDITION PARAMETERS: read-out: PDE4 Isoform % Inhibition @ 10 μM PDE4D2

>>> observed_measurement("COc1ccc([C@@]23CC[C@@H](n4cccn4)C[C@@H]2N(C)CC3)cc1OC")
"< 30%"

Give inhibition at 10 µM for the following molecule: COc1ccc([C@@]23CCN(C)[C@H]2CC(=O)[C@@H]2O[C@@H]23)cc1OC (racemic) ≥ 70%

Return inhibition at 10 µM (reported value) for this molecule: "COc1ccc([C@@]23CC[C@@H](N4CCC4)C[C@@H]2N(C)CC3)cc1OC" < 30%

Give recorded inhibition at 10 µM. "COc1ccc([C@@]23CC[C@H](N4CCCC4=O)C[C@@H]2N(C)CC3)cc1OC" < 30%

* * *

# ASSAY SYSTEM: PDE4A1A (Homo sapiens (Human), UniProt P27815)
# Sequence (P27815 other isoform, or with tags, fused parts or gaps): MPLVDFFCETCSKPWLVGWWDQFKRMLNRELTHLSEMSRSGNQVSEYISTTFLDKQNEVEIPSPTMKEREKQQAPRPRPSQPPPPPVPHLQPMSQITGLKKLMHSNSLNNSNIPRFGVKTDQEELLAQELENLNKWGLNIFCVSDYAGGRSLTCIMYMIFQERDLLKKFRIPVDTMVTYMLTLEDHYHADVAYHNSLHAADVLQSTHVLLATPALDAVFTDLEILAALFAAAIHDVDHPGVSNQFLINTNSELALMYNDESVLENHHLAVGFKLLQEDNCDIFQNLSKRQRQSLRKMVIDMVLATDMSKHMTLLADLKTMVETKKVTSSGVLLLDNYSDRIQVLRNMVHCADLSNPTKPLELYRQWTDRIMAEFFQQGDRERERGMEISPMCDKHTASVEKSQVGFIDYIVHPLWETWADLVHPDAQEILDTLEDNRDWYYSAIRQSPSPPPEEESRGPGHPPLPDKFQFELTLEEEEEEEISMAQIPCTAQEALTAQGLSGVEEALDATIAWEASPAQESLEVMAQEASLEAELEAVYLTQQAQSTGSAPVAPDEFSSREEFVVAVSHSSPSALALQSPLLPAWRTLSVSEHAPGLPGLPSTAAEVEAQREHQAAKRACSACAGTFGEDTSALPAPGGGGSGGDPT
# ASSAY INFO: PDE4 percent inhibition assay
# Format: biochemical
# CONDITION PARAMETERS: read-out: PDE4 Isoform % Inhibition @ 10 μM PDE4A1A
PROPERTY: inhibition at 10 µM

Using the record for COc1ccc([C@]23CCN(C)[C@H]2CC2(CCO2)CC3)cc1OC (stereo partly shown) [Compound 118] , state its measured inhibition at 10 µM. 30 to 50%

* * *

The entries below are paired with their reported IC50.
# ASSAY SYSTEM: SERT (Homo sapiens (Human))
# ASSAY INFO: SERT inhibition assay (Neurotransmitter Transporter Fluorescence assay)
# Type: cell-based
# CONDITION PARAMETERS: class symbols; legend in nM/micromolar

Observe how each entry below is paired with its result.
>>> observed_measurement("COc1ccc([C@]23CCN(C)[C@H]2CC(=O)C[C@H]3c2ccccc2)cc1OC")
"> 1000 nM"
>>> observed_measurement("COc1ccc([C@]23CCN(C)[C@H]2[C@@H]2C[C@H]3CC2=O)cc1OC")
"> 1000 nM"

Quote IC50 reported for "CCN1CC[C@]2(c3ccc(OC)c(OC)c3)CCC(=O)C[C@H]12" please. > 1000 nM

Quote IC50 reported for "COc1ccc([C@@]23CCC(=O)C[C@@H]2N(C(C)C)CC3)cc1OC" please. 500 to 1000 nM

* * *

# ASSAY SYSTEM: PDE4A1A (Homo sapiens (Human))
# ASSAY INFO: PDE4 percent inhibition assay
# Type: biochemical
# CONDITION PARAMETERS: read-out: PDE4 Isoform % Inhibition @ 10 μM PDE4A1A
PROPERTY: inhibition at 10 µM

>>> observed_measurement("COc1ccc([C@@]23CC[C@@H](N4CCOCC4)C[C@@H]2N(C)CC3)cc1OC [Compound 109]")
"< 30%"
>>> observed_measurement("COc1ccc([C@@]23CC[C@H](N4CCOCC4)C[C@@H]2N(C)CC3)cc1OC [Compound 108]")
"< 30%"
>>> observed_measurement("COc1ccc([C@@]23CC[C@H](n4ccc(C(F)(F)F)n4)C[C@@H]2N(C)CC3)cc1OC [Compound 101]")
"< 30%"
>>> observed_measurement("COc1ccc([C@@]23CC[C@@H](N4CCC4)C[C@@H]2N(C)CC3)cc1OC [Compound 116]")
"< 30%"

Let us move to another entry and its inhibition at 10 µM.
Indicate the recorded inhibition at 10 µM value for this compound: COc1ccc([C@]23CCN(C)[C@H]2CC(=O)C=C3c2ccccc2)cc1OC (racemic) [Compound 201] ≥ 70%

* * *

Reported inhibition at 10 µM values for the following compounds.
# ASSAY SYSTEM: PDE4D2 (Homo sapiens (Human))
# Sequence (Q08499 303-809, change not shown): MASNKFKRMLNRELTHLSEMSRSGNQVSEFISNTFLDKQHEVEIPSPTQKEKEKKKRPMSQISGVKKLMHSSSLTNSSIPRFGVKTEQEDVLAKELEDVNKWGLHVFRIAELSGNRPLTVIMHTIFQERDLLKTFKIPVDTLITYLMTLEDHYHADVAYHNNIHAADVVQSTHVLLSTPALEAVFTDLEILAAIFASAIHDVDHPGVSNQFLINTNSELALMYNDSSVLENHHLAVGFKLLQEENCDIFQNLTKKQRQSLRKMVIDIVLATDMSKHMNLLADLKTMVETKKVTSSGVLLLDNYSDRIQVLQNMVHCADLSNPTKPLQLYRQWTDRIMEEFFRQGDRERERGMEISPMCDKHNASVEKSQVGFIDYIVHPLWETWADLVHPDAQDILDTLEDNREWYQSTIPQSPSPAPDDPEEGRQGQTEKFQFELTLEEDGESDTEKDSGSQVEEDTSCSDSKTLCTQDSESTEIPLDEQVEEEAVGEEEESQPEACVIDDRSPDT
# ASSAY INFO: PDE4 percent inhibition assay
# Type: biochemical
# CONDITION PARAMETERS: read-out: PDE4 Isoform % Inhibition @ 10 μM PDE4D2

Some compounds with known inhibition at 10 µM results, for comparison:
>>> observed_measurement("COc1ccc([C@@]23CC[C@H](N4CCCCC4)C[C@@H]2N(C)CC3)cc1OC [Compound 107]")
"< 30%"
>>> observed_measurement("COc1ccc([C@]23CCN(C)[C@H]2CC2(CCCO2)CC3)cc1OC (stereo partly shown) [Compound 117]")
"30 to 50%"
>>> observed_measurement("COc1ccc([C@@]23CC[C@H](N4CCCC4)C[C@@H]2N(C)CC3)cc1OC [Compound 106]")
"< 30%"

Report inhibition at 10 µM for COc1ccc([C@@]23CC[C@@H](N4CCCC4=O)C[C@@H]2N(C)CC3)cc1OC [Compound 110] < 30%

Kindly indicate its recorded inhibition at 10 µM. Item: COc1ccc([C@@]23CC[C@H](n4cccn4)C[C@@H]2N(C)CC3)cc1OC [Compound 102] < 30%

Answer with reported inhibition at 10 µM of COc1ccc([C@]23CCN(C)[C@H]2CC2(CCO2)CC3)cc1OC (stereo partly shown) [Compound 118] 30 to 50%

Query inhibition at 10 µM for COc1ccc([C@]23CCN(C)[C@H]2CC(=O)C=C3c2ccccc2)cc1OC (racemic) [Compound 201] ≥ 70%

Fill in inhibition at 10 µM for record COc1ccc([C@@]23CC[C@H](n4ccc(C(F)(F)F)n4)C[C@@H]2N(C)CC3)cc1OC [Compound 101] < 30%

In one line, give reported inhibition at 10 µM of the entry COc1ccc([C@@]23CC[C@H](N4CCC4)C[C@@H]2N(C)CC3)cc1OC [Compound 104] . < 30%

State its inhibition at 10 µM for this compound: COc1ccc([C@@]23CC[C@@H](n4ccc(C(F)(F)F)n4)C[C@@H]2N(C)CC3)cc1OC [Compound 115] < 30%

Find the measured inhibition at 10 µM of COc1ccc([C@@]23CC[C@H](N4CCOCC4)C[C@@H]2N(C)CC3)cc1OC [Compound 108] and report it. < 30%

Give the reported value of inhibition at 10 µM for this record: COc1ccc([C@@]23CC[C@@H](N4CCOCC4)C[C@@H]2N(C)CC3)cc1OC [Compound 109] < 30%

Indicate the recorded inhibition at 10 µM value for this compound: COc1ccc([C@@]23CC[C@@H](N4CCCC4)C[C@@H]2N(C)CC3)cc1OC [Compound 105] < 30%
